The measured values listed here are drawn from patent US8569344B2.

target: human α1G T-type channels (Homo sapiens, UniProt O43497); construct: expressed in transfected cells; host or cells: HEK 293; experiment: T-type calcium channel block, whole cell patch clamp in HEK cells (α1G); assay type: cell-based; settings: HEK cells, patch clamp, mainly non-inactivated protocol; values above 10 μM shown as 10 μM, below 0.30 μM shown as 0.30 μM; read-out: T-type Calcium Channel Block α1G IC50
Sequence (O43497 whole entry): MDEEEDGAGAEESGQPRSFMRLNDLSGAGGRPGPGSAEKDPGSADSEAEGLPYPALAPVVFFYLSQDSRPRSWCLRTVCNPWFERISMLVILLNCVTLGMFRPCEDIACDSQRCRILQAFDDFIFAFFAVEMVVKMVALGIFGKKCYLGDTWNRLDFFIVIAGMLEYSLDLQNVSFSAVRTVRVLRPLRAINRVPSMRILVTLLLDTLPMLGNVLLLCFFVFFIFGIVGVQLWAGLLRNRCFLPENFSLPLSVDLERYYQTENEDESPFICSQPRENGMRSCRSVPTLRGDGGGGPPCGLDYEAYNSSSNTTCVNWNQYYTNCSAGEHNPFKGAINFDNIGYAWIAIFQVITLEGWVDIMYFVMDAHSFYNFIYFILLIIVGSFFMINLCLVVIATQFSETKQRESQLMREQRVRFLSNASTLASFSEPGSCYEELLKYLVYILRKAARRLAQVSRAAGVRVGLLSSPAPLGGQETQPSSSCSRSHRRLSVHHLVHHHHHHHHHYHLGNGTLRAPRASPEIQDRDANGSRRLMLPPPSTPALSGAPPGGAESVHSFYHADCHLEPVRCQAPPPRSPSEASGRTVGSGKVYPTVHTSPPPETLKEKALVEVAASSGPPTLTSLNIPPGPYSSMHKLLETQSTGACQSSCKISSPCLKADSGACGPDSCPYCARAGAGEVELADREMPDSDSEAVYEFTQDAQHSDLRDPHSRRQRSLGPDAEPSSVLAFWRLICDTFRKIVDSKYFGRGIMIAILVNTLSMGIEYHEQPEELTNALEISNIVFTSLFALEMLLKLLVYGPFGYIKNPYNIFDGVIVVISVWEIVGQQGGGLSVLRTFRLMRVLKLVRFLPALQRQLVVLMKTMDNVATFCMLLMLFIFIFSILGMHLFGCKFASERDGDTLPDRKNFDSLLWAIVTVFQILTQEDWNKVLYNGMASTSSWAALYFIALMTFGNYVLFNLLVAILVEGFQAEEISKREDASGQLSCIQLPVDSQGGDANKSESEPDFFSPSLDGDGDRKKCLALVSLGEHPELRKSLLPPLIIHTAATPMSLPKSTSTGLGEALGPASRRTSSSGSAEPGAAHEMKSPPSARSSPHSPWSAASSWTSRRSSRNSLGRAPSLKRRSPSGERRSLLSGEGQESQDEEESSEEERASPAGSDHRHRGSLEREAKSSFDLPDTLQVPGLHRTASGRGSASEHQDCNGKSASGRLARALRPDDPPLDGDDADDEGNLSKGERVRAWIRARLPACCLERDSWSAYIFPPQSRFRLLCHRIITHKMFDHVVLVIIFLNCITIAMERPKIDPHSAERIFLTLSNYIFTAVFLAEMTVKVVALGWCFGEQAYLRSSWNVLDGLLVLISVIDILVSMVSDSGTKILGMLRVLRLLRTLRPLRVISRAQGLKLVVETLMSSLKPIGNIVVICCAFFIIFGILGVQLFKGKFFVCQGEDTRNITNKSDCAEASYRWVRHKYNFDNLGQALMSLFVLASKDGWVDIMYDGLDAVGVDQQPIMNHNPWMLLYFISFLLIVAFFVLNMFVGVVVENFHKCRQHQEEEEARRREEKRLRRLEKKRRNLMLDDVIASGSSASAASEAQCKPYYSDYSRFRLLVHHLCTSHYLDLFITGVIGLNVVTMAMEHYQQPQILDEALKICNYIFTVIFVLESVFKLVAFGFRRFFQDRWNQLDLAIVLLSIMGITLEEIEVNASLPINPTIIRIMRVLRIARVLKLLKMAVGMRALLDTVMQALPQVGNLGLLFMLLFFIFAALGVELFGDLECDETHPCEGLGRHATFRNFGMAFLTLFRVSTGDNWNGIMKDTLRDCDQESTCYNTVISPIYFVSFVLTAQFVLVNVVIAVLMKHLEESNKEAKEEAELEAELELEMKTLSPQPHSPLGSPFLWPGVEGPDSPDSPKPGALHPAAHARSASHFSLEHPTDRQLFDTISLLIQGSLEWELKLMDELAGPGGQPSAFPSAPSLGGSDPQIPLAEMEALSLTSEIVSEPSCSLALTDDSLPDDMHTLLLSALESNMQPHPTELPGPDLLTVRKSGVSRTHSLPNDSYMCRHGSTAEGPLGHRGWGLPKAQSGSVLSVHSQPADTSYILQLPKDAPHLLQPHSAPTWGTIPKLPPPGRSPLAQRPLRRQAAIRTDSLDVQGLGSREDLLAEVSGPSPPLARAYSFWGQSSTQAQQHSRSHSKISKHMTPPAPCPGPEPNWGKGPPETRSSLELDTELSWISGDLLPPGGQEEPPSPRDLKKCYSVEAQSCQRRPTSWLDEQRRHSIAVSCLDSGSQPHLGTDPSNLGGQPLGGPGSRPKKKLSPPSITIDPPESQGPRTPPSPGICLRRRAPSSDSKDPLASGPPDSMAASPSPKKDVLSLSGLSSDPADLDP
Under this convention, YES denotes IC50 strictly below 3000 nM and NO denotes IC50 at or above 3000 nM.

Lab note: IC50 threshold 3000 nM. Does this molecule come in strictly under it? O=C(NCC1CCN(CCNS(=O)(=O)C2CCC2)CC1)c1cc(F)cc(C(F)(F)F)c1 [Compound 306]
YES

Lab note: IC50 threshold 3000 nM. Does this molecule come in strictly under it? COc1cc(F)cc(C(=O)NCC2CCN(CC(=O)NC(C)C)CC2)c1 [Compound 438]
NO

Lab note: IC50 threshold 3000 nM. Does this molecule come in strictly under it? CCOC(=O)NC(CN1CCC(CC(=O)NCc2cc(Cl)cc(Cl)c2)CC1)C(C)(C)C (stereo not shown) [Compound 224]
NO

Lab note: IC50 threshold 3000 nM. Does this molecule come in strictly under it? CC(C)(C)S(=O)(=O)NCCN1CCC(CNC(=O)c2cc(F)cc(Cl)c2)CC1 [Compound 565]
YES

Lab note: IC50 threshold 3000 nM. Does this molecule come in strictly under it? CC(C)(C(=O)NCCN1CCC(CNC(=O)c2cccc(C(F)(F)F)c2)CC1)C(F)(F)F [Compound 492]
YES

Lab note: IC50 threshold 3000 nM. Does this molecule come in strictly under it? Cc1cc(C)cc(C(=O)NCC2CCN(CCNC(=O)C(C)(C)C(F)(F)F)CC2)c1 [Compound 488]
YES
